Where do the numbers come from? From patent US20250144067A1.

Measured Cholesterol-free media + simvastatin (0.04 μM) of individual entries
tested on: NCI-H292 lung cancer cells; assay: FDA drug screening, complete media vs cholesterol-free media with simvastatin (TABLE 2); format: cell-based, human; settings: NCI-H292 cells, FDA drug library screen, cholesterol-free media with simvastatin 0.04 μM
Counter-ions that a name gives are not always drawn.
measured metric: Cholesterol-free media + simvastatin (0.04 μM)

{"compound": "NC(=O)CN1CCCC1=O [Piracetam]", "recorded measurement": 1.178}
{"compound": "OCCN1CCN(CCCN2c3ccccc3Sc3ccc(Cl)cc32)CC1 [Perphenazine]", "recorded measurement": 0.707}
{"compound": "NC(=O)[C@@H]1CC[C@@H]2CN1C(=O)N2OS(=O)(=O)O [Avibactam (sodium hydrate)]", "recorded measurement": 1.124}
{"compound": "CC(=O)Nc1cccc(-n2c(=O)n(C3CC3)c(=O)c3c(Nc4ccc(I)cc4F)n(C)c(=O)c(C)c32)c1 [Trametinib (DMSO solvate)]", "recorded measurement": 0.4848}
{"compound": "N=C(N)NC(=O)c1nc(Cl)c(N)nc1N [Amiloride (hydrochloride)]", "recorded measurement": 1.016}
{"compound": "CC(C)[C@H]1CC[C@H](C(=O)N[C@H](Cc2ccccc2)C(=O)O)CC1 [Nateglinide]", "recorded measurement": 1.052}
{"compound": "CN[C@@H]1[C@H](O)[C@H](NC)[C@H]2O[C@@]3(O)C(=O)C[C@@H](C)O[C@H]3O[C@@H]2[C@H]1O.Cl.Cl.O.O.O.O.O", "recorded measurement": 0.773}
{"compound": "CC(=O)OCC(=O)[C@H]1CC[C@H]2[C@@H]3CCC4=CC(=O)CC[C@]4(C)[C@H]3CC[C@]12C [Deoxycorticosterone acetate]", "recorded measurement": 0.9825}
{"compound": "CC#CC(=O)N1CCC[C@H]1c1nc(-c2ccc(C(=O)Nc3ccccn3)cc2)c2c(N)nccn12 [Acalabrutinib]", "recorded measurement": 1.302}
{"compound": "CC(=O)[C@@]1(O)CC[C@H]2[C@@H]3CCC4=CC(=O)CC[C@]4(C)[C@H]3CC[C@@]21C [17-Hydroxyprogesterone]", "recorded measurement": 0.9953}
{"compound": "CC1=C(C(=O)O)N2C(=O)[C@@H](NC(=O)[C@H](N)c3ccc(O)cc3)[C@H]2SC1 [Cefadroxil]", "recorded measurement": 1.041}
{"compound": "Cc1c(C)c2c(c(C)c1O)CCC(C)(CCCC(C)CCCC(C)CCCC(C)C)O2 (racemic) [DL-alpha-Tocopherol]", "recorded measurement": 1.155}
{"compound": "N[C@@H](Cc1c[nH]c2ccc(O)cc12)C(=O)O [L-5-Hydroxytryptophan]", "recorded measurement": 1.408}
{"compound": "C=C[C@@H]1C[C@]1(NC(=O)[C@@H]1C[C@@H]2CN1C(=O)[C@H](C(C)(C)C)NC(=O)O[C@@H]1C[C@H]1CCCCCc1nc3ccc(OC)cc3nc1O2)C(=O)[N-]S(=O)(=O)C1CC1.[K+] [Grazoprevir potassium salt]", "recorded measurement": 1.46}
{"compound": "COc1cc(OC)c(C(=O)CCCN2CCCC2)c(OC)c1 [Buflomedil (hydrochloride)]", "recorded measurement": 0.7629}

====

test system: NCI-H292 lung cancer cells; assay: FDA drug screening, complete media vs cholesterol-free media without statin (TABLE 1); type: cell-based, human; settings: NCI-H292 cells, cholesterol-free media without statin, FDA drug library screen
Where a name gives a salt, the structure may show the parent alone.

{"molecule": "CCn1nc(C(=O)O)c(=O)c2cc3c(cc21)OCO3 [Cinoxacin]", "Cholesterol-free": 0.9965}
{"molecule": "CN1C(=O)/C(=C2/C(=O)Nc3ccccc32)c2ccccc21 [Meisoindigo]", "Cholesterol-free": 0.8169}
{"molecule": "Nc1ccn([C@@H]2O[C@H](CO)[C@@H](O)C2(F)F)c(=O)n1 [Gemcitabine]", "Cholesterol-free": 0.04572}
{"molecule": "N=C(N)NC(=O)Cc1c(Cl)cccc1Cl [Guanfacine (hydrochloride)]", "Cholesterol-free": 0.9809}
{"molecule": "CN(C)C(=O)Oc1cc(OC(=O)N(C)C)cc(C(O)CNC(C)(C)C)c1 (centres unmarked) [Bambuterol hydrochloride]", "Cholesterol-free": 1.362}
{"molecule": "CO/N=C(\\C(=O)N[C@@H]1C(=O)N2C(C(=O)[O-])=C(C[n+]3ccn4ncccc43)CS[C@H]12)c1nsc(N)n1 [Cefozopran (hydrochloride)]", "Cholesterol-free": 1.014}
{"molecule": "C[S+](CC[C@H](N)C(=O)O)C[C@H]1O[C@@H](n2cnc3c(N)ncnc32)[C@H](O)[C@@H]1O.Cc1ccc(S(=O)(=O)[O-])cc1 (stereo partly drawn) [S-Adenosyl-L-methionine (tosylate)]", "Cholesterol-free": 0.8583}
{"molecule": "CCC(=O)c1c(O)cc(O)cc1O [Flopropione]", "Cholesterol-free": 1.019}
{"molecule": "CN1CCCC(n2nc(Cc3ccc(Cl)cc3)c3ccccc3c2=O)CC1 (centres unmarked) [Azelastine (hydrochloride)]", "Cholesterol-free": 0.9594}
{"molecule": "COc1cc(S(=O)(=O)[O-])ccc1O.[K+] [Sulfogaiacol]", "Cholesterol-free": 0.8896}
{"molecule": "COc1c(C)c2c(c(O)c1C/C=C(\\C)CCC(=O)O)C(=O)OC2 [Mycophenolic acid]", "Cholesterol-free": 0.346}
{"molecule": "COC(=O)CCc1ccc(OCC(O)CNC(C)C)cc1 (centres unmarked) [Esmolol (hydrochloride)]", "Cholesterol-free": 0.7243}
{"molecule": "Oc1c(Br)cc(Br)c2cccnc12 [Broxyquinoline]", "Cholesterol-free": 1.044}
{"molecule": "CC(=O)Oc1c(C)cc(OCC(O)CNC(C)C)c(C)c1C (centres unmarked) [Metipranolol hydrochloride]", "Cholesterol-free": 0.8441}
{"molecule": "C[C@]12CC[C@H](O)CC1=CC[C@@H]1[C@@H]2CC[C@]2(C)C(=O)CC[C@@H]12 [DHEA]", "Cholesterol-free": 1.449}
{"molecule": "O=C(O)Cc1ccccc1Nc1c(Cl)cccc1Cl [Diclofenac (diethylamine)]", "Cholesterol-free": 0.7838}
{"molecule": "Cn1ncnc1[C@H]1c2n[nH]c(=O)c3cc(F)cc(c23)N[C@@H]1c1ccc(F)cc1 [Talazoparib tosylate]", "Cholesterol-free": 0.1398}
{"molecule": "CNC(=O)c1c(C)oc2cc(Oc3ncnc4cc(OC)c(OC)cc34)ccc12 [Fruquintinib]", "Cholesterol-free": 0.9702}
{"molecule": "CCN(CC)C(=S)SSC(=S)N(CC)CC [Disulfiram]", "Cholesterol-free": 0.0139}
{"molecule": "Nc1ccn([C@@H]2O[C@H](CO)[C@@H](O)C2(F)F)c(=O)n1 [Gemcitabine (hydrochloride)]", "Cholesterol-free": 0.05262}
{"molecule": "OCC(O)CO [Glycerol]", "Cholesterol-free": 0.984}
{"molecule": "N[C@@H](CSCC(=O)O)C(=O)O [Carbocisteine]", "Cholesterol-free": 1.486}
{"molecule": "C[N+](C)(C)CCOP(=O)(O)OP(=O)([O-])OC[C@H]1O[C@@H](n2ccc(N)nc2=O)[C@H](O)[C@@H]1O [Citicoline]", "Cholesterol-free": 0.7726}
{"molecule": "CCOC(=O)n1ccn(C)c1=S [Carbimazole]", "Cholesterol-free": 1.183}
{"molecule": "O=c1[nH]c(=O)n([C@H]2C[C@H](O)[C@@H](CO)O2)cc1F [Floxuridine]", "Cholesterol-free": 0.09159}
{"molecule": "CC(C)[C@H](N)C(=O)OCC(CO)OCn1cnc2c(=O)nc(N)[nH]c21 (some centres unmarked) [Valganciclovir (hydrochloride)]", "Cholesterol-free": 1.042}
{"molecule": "CCCCCCCCCCC[C@@H](C[C@@H]1OC(=O)[C@H]1CCCCCC)OC(=O)[C@H](CC(C)C)NC=O [Orlistat]", "Cholesterol-free": 1.018}
{"molecule": "NCCS(=O)(=O)O [Taurine]", "Cholesterol-free": 1.192}
{"molecule": "C[C@H]1C[C@@H]2[C@H]([C@@H](O)C[C@@]3(C)[C@H]2CC[C@]3(O)C(=O)COC(=O)CCC(=O)[O-])[C@@]2(C)C=CC(=O)C=C12.[Na+]", "Cholesterol-free": 0.6071}
{"molecule": "CC[C@H]1OC(=O)[C@H](C)[C@@H](O[C@H]2C[C@@](C)(OC)[C@@H](O)[C@H](C)O2)[C@H](C)[C@@H](O[C@@H]2O[C@H](C)C[C@H](N(C)C)[C@H]2O)[C@](C)(O)C[C@@H](C)CN(C)[C@H](C)[C@@H](O)[C@]1(C)O [Azithromycin]", "Cholesterol-free": 1.249}
{"molecule": "CC(=O)S[C@@H]1CC2=CC(=O)CC[C@]2(C)[C@H]2CC[C@@]3(C)[C@@H](CC[C@@]34CCC(=O)O4)[C@H]12 [Spironolactone]", "Cholesterol-free": 1.102}
{"molecule": "Cc1[nH]c(/C=C2\\C(=O)Nc3ccc(F)cc32)c(C)c1C(=O)NCCN1CCCC1 [Toceranib]", "Cholesterol-free": 0.7492}
